Assay: Cytotoxicity against human hTERT-HPNE cells assessed as cell growth inhibition incubated for 72 hrs by sulforhodamine B assay
Format: toxicity, cell-based
measured parameter: IC50 at 72 h

// IC50 at 72 h lookup, compound = O=C(c1cc(O)ccc1F)N1CCC(Cc2cccc(Oc3cc(C(F)(F)F)ccn3)c2)CC1 , result: > 20 µM

###

Test: Stability of the compound in pooled human plasma at 3 mM measured up to 24 hrs by UV/LC-MS assay
Type: ADME, cell-free
Conditions: read-out: Stability
measured parameter: half-life at 3000 µM

> print(dat)
                                   compound    measured.parameter  meas.value
1  O=C(c1ccc(Sc2cccc(C(F)(F)F)c2)cc1)C1CCN(C(=O)c2cc(O)ccc2F)CC1  half-life at 3000 µM      > 24 h

Now consider a different molecule.
For this molecule ( O=C(c1cc(O)ccc1F)N1CCC(Cc2cccc(Oc3cc(C(F)(F)F)ccn3)c2)CC1 ), measured half-life at 3000 µM is > 24 h
